Test system: 454973-116-R2-J3-PDC spheroids, viability, % test/control;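 further: spheroids exposed to compounds for seven days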
procedure_summary: Anticancer human tumor 454973-116-R2-J3-PDC patient-derived pancreatic carcinoma cell line growth inhibition [GQUAD]
measurement_parameters: curve of first compound; second compound 1 µM; spheroids with HUVEC and MSC
Recorded IC50 values for a group of compounds are listed next.
experimental_readout: IC50

| compound | experimental_value |
| --- | --- |
| Cn1ncnc1[C@H]1c2n[nH]c(=O)c3cc(F)cc(c23)N[C@@H]1c1ccc(F)cc1 + CN(C)c1ccc(Nc2c3ccc(NC(=O)CCN4CCCC4)cc3nc3cc(NC(=O)CCN4CCCC4)ccc23)cc1 | > 0.316 µM |
| CC1COCCN1c1cc(C2(S(C)(=N)=O)CC2)nc(-c2ccnc3[nH]ccc23)n1 (stereo unspecified) + CN(C)c1ccc(Nc2c3ccc(NC(=O)CCN4CCCC4)cc3nc3cc(NC(=O)CCN4CCCC4)ccc23)cc1 | 5.14 µM |
| O=C(c1cc(Cc2n[nH]c(=O)c3ccccc23)ccc1F)N1CCN(C(=O)C2CC2)CC1 + Cc1cnc(CNC(=O)c2c(=O)c3ccc(N4CCCN(C)CC4)nc3n3c2sc2ccccc23)cn1 | > 10 µM |
| O=C(c1cc(Cc2n[nH]c(=O)c3ccccc23)ccc1F)N1CCN(C(=O)C2CC2)CC1 + Cc1[nH]c2ccc(F)cc2c1-c1nc2c3cccnc3c3ncccc3c2[nH]1 | > 10 µM |
| COc1cc(C2c3cc4c(cc3C(OC3OC5COC(C)OC5C(O)C3O)C3COC(=O)C23)OCO4)cc(OC)c1O (stereo unspecified) + Cc1cnc(CNC(=O)c2c(=O)c3ccc(N4CCCN(C)CC4)nc3n3c2sc2ccccc23)cn1 | 1.06 µM |
| Nc1ccn(C2OC(CO)C(O)C2(F)F)c(=O)n1 (stereo unspecified) + CN(C)c1ccc(Nc2c3ccc(NC(=O)CCN4CCCC4)cc3nc3cc(NC(=O)CCN4CCCC4)ccc23)cc1 | < 0.0316 µM |
